# credit: patent US20250214986A1

- MEASUREMENT PROTOCOL: Dynamic solubility experiment at 37° C.
- Format: physicochemical
- TEST CONTEXT: H2O, 1 h
Counter-ions that a name gives are not always drawn.

COMPOUND	Crystalline form change
Cc1cnc(-c2cc(O[C@@H](C)[C@@H](C)O)cc(C(=O)N[C@H](C)c3cnc(C(F)(F)F)nc3)c2F)s1 [Crystalline form A of maleate]	Yes^a
Cc1cnc(-c2cc(O[C@@H](C)[C@@H](C)O)cc(C(=O)N[C@H](C)c3cnc(C(F)(F)F)nc3)c2F)s1 [Free base crystalline form A]	No
Cc1cnc(-c2cc(O[C@@H](C)[C@@H](C)O)cc(C(=O)N[C@H](C)c3cnc(C(F)(F)F)nc3)c2F)s1 [Crystalline form A of hydrochloride]	Yes^a
Cc1cnc(-c2cc(O[C@@H](C)[C@@H](C)O)cc(C(=O)N[C@H](C)c3cnc(C(F)(F)F)nc3)c2F)s1 [Crystalline form A of p-toluenesulfonate]	Yes^a

----------
- MEASUREMENT PROTOCOL: Dynamic solubility experiment at 37° C.
- Format: physicochemical
- TEST CONTEXT: H2O, 1 h
Where a name gives a salt, the structure may show the parent alone.
MEASURED QUANTITY: pH of filtrate
Please give the numeric answer without any surrounding text.

COMPOUND	ENDPOINT VALUE
Cc1cnc(-c2cc(O[C@@H](C)[C@@H](C)O)cc(C(=O)N[C@H](C)c3cnc(C(F)(F)F)nc3)c2F)s1 [Crystalline form A of hydrochloride]	2.1

input: Indicate the recorded pH of filtrate value for this compound: Cc1cnc(-c2cc(O[C@@H](C)[C@@H](C)O)cc(C(=O)N[C@H](C)c3cnc(C(F)(F)F)nc3)c2F)s1 [Free base crystalline form A]
output: 8.8

input: Output measured pH of filtrate for this item: Cc1cnc(-c2cc(O[C@@H](C)[C@@H](C)O)cc(C(=O)N[C@H](C)c3cnc(C(F)(F)F)nc3)c2F)s1 [Crystalline form A of maleate]
output: 2.3

input: Name the recorded pH of filtrate of the compound listed here: Cc1cnc(-c2cc(O[C@@H](C)[C@@H](C)O)cc(C(=O)N[C@H](C)c3cnc(C(F)(F)F)nc3)c2F)s1 [Crystalline form A of p-toluenesulfonate]
output: 1.8

----------
- MEASUREMENT PROTOCOL: Dynamic solubility experiment at 37° C.
- Format: physicochemical
- TEST CONTEXT: H2O, 4 h
Counter-ions that a name gives are not always drawn.

COMPOUND	Crystalline form change
Cc1cnc(-c2cc(O[C@@H](C)[C@@H](C)O)cc(C(=O)N[C@H](C)c3cnc(C(F)(F)F)nc3)c2F)s1 [Crystalline form A of p-toluenesulfonate]	Yes^a
Cc1cnc(-c2cc(O[C@@H](C)[C@@H](C)O)cc(C(=O)N[C@H](C)c3cnc(C(F)(F)F)nc3)c2F)s1 [Free base crystalline form A]	No
Cc1cnc(-c2cc(O[C@@H](C)[C@@H](C)O)cc(C(=O)N[C@H](C)c3cnc(C(F)(F)F)nc3)c2F)s1 [Crystalline form A of maleate]	Yes^a
Cc1cnc(-c2cc(O[C@@H](C)[C@@H](C)O)cc(C(=O)N[C@H](C)c3cnc(C(F)(F)F)nc3)c2F)s1 [Crystalline form A of hydrochloride]	Yes^a

----------
- MEASUREMENT PROTOCOL: Dynamic solubility experiment at 37° C.
- Format: physicochemical
- TEST CONTEXT: SGF, 24 h
Structures can show the parent of a compound that is named as a salt.
Reported pH of filtrate is given for each of the following compounds.

COMPOUND	pH of filtrate
Cc1cnc(-c2cc(O[C@@H](C)[C@@H](C)O)cc(C(=O)N[C@H](C)c3cnc(C(F)(F)F)nc3)c2F)s1 [Crystalline form A of hydrochloride]	1.6
Cc1cnc(-c2cc(O[C@@H](C)[C@@H](C)O)cc(C(=O)N[C@H](C)c3cnc(C(F)(F)F)nc3)c2F)s1 [Crystalline form A of p-toluenesulfonate]	1.5
Cc1cnc(-c2cc(O[C@@H](C)[C@@H](C)O)cc(C(=O)N[C@H](C)c3cnc(C(F)(F)F)nc3)c2F)s1 [Crystalline form A of maleate]	1.7

input: Output measured pH of filtrate for this item: Cc1cnc(-c2cc(O[C@@H](C)[C@@H](C)O)cc(C(=O)N[C@H](C)c3cnc(C(F)(F)F)nc3)c2F)s1 [Free base crystalline form A]
output: 1.8
